Origin of measurements: patent US7417045B2

Listed below: IC50 values for each entry.
Target: human CXCR3 (N-delta 4) (Homo sapiens, UniProt P49682)
Construct: CD8 leader (N); Flag tag; expressed in transfected cells; membranes
Sequence (P49682 5-368 limits assumed): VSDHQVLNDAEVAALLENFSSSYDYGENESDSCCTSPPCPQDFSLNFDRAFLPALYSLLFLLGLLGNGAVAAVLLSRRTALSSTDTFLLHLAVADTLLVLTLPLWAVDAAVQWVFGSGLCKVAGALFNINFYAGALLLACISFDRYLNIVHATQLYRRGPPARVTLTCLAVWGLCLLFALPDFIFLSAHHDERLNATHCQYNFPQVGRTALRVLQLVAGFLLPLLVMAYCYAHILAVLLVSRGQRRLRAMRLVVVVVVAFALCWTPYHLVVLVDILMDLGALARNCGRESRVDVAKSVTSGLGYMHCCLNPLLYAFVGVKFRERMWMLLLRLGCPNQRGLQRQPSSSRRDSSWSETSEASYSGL
Assay: Human CXCR3 (N-delta 4) Scintillation Proximity Assay (SPA), [125I] IP-10 binding
Conditions: IC50 rating; [125I] IP-10 displacement, Ba/F3-hCXCR3 (N-delta 4) membranes

{"columns": ["compound", "target-entity", "IC50"],
 "data": [
  ["CC[C@H]1CN(c2ncc(-c3ncc[nH]3)cc2Cl)CCN1C1CCN([C@H](C(=O)NCC(F)(F)F)c2ccc(Cl)cc2)CC1", "human CXCR3 (N-delta 4) (Homo sapiens, UniProt P49682)", "> 100 nM"],
  ["CC[C@H]1CN(c2ncc(-c3ncc[nH]3)cc2Cl)CCN1C1CCN([C@H](C(=O)NC2CC2)c2ccc(Cl)cc2)CC1", "human CXCR3 (N-delta 4) (Homo sapiens, UniProt P49682)", "> 100 nM"],
  ["CC[C@H]1CN(c2ncc(-c3ncc[nH]3)cc2Cl)CCN1C1CCN([C@@H](C(=O)OC)c2ccc(Cl)cc2)CC1", "human CXCR3 (N-delta 4) (Homo sapiens, UniProt P49682)", "< 25 nM"],
  ["CC[C@H]1CN(c2ncc(-c3ncc[nH]3)cc2Cl)CCN1C1CCN(Cc2ccc(C#N)cc2)CC1", "human CXCR3 (N-delta 4) (Homo sapiens, UniProt P49682)", "< 25 nM"],
  ["CC[C@H]1CN(c2ncc(-c3ncco3)cc2Cl)CCN1C1CCN(Cc2ccc(Cl)cc2F)CC1", "human CXCR3 (N-delta 4) (Homo sapiens, UniProt P49682)", "> 100 nM"],
  ["CC[C@H]1CN(c2ncc(-c3ncc[nH]3)cc2Cl)CCN1C1CCN(Cc2ccc(-c3csnn3)cc2)CC1", "human CXCR3 (N-delta 4) (Homo sapiens, UniProt P49682)", "< 25 nM"],
  ["CC[C@H]1CN(c2ncc(C3=NC(C)CN3)cc2Cl)CCN1C1CCN(C(=O)c2ccc(Cl)cc2)CC1 (stereo partly shown)", "human CXCR3 (N-delta 4) (Homo sapiens, UniProt P49682)", "< 25 nM"]
]}
